- STUDY_TARGET: T1, human insulin-like growth factor-II (IGF-II) (human, UniProt P01344 25-91)
- T1 construct: also called IGF2; IGF-2
- ASSAY_EXPLANATION: Biacore low-resolution screen, mAb captured, IGF-II injected
MEASUREMENT_KIND: Kd (nM)
Give a bare numeral; the unit nM is implied.

// mAb 7.251.3 (antibody, V domains shown, Fully human XenoMouse hybridoma mAb, lambda light chain (V1-13/JL2); also called ATCC PTA-7422) VH: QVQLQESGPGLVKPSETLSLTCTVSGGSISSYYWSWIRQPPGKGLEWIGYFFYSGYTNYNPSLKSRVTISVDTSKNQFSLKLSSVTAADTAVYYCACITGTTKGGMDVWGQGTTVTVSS VL: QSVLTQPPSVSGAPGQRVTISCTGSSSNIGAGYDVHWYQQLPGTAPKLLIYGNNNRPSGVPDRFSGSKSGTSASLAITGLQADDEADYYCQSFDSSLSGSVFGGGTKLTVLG : Kd value = 0.123
